Measured values drawn from patent US7183267B2 for this set.

Target: TEM-1 β-lactamase (Escherichia coli, UniProt P62593)
Sequence (P62593 24-286 limits assumed): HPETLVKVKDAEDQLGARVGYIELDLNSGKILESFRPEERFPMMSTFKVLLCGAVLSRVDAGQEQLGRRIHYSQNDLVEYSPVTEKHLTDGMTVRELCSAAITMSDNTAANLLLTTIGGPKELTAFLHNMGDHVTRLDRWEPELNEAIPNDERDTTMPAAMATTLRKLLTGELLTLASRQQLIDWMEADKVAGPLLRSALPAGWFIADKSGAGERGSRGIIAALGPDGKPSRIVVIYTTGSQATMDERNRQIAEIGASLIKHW
Assay: TEM-1 β-lactamase inhibition assay (nitrocefin hydrolysis, 486 nm)
Type: biochemical
Conditions: Ki, 25° C., 50 mM sodium phosphate, 5% DMSO, pH 7.0; enzyme 5 nM, nitrocefin 167 μM
Quantity name: pKi
Please report pKi as the negative decimal logarithm of the molar concentration, giving only the number.

Query: Recall and state the measured pKi for OB(O)c1cccc2c1Sc1ccccc1S2 [Compound F1012] .
Response: 3.95

Query: Answer with the recorded pKi of CCOC(=O)c1ccccc1OC(=O)c1cc(B(O)O)cc([N+](=O)[O-])c1 [Compound (1i)] only.
Response: 4.00

Query: Please report pKi for the following compound: O=C(Oc1ccc(OC(=O)c2cc(B(O)O)cc([N+](=O)[O-])c2)cc1)c1cc(B(O)O)cc([N+](=O)[O-])c1 [Compound (2a)]
Response: 4.64

Query: Report measured pKi; entry is O=C(Oc1cccc(OC(=O)c2cc(B(O)O)cc([N+](=O)[O-])c2)c1)c1cc(B(O)O)cc([N+](=O)[O-])c1 [Compound (9a)]
Response: 4.80

Query: Supply recorded pKi for O=C(OCc1ccccc1)c1cccc(B(O)O)c1 [Compound F1001] here.
Response: 3.98

Query: // Input: Nc1cc(B(O)O)cc(C(=O)O)c1 [Compound (5a), 3–5-carboxylphenylboronic acid] . Output its pKi only.
Response: 3.14

Query: Look up and state reported pKi for O=C(OCc1cccc([N+](=O)[O-])c1)c1cc(B(O)O)cc([N+](=O)[O-])c1 [Compound (3b)]
Response: 4.57

Query: Supply reported pKi belonging to this compound: O=C(Oc1ccncc1)c1cc(B(O)O)cc([N+](=O)[O-])c1 [(1r)]
Response: 3.86

Query: Consider the compound O=C(c1cccc(B(O)O)c1)N1CCCC1 [Compound BB-1005] . State its measured pKi.
Response: 3.41

Query: Retrieve pKi measured for O=C(Oc1ccc2sc(=O)oc2c1)c1cc(B(O)O)cc([N+](=O)[O-])c1 [Compound (1f)] and print it.
Response: 4.48

Query: Supply pKi value. Item: O=C(OCc1c(Cl)cccc1Cl)c1cc(B(O)O)cc([N+](=O)[O-])c1 [Compound (3a)]
Response: 4.47

Query: Give pKi for N#Cc1ccccc1OC(=O)c1cc(B(O)O)cc([N+](=O)[O-])c1 [Compound (1g)]
Response: 4.43

Query: Please report pKi for the following compound: O=C(Oc1cccc(B(O)O)c1)c1c(Cl)cccc1Cl [Compound (6a)]
Response: 4.55

Query: Fill in reported pKi for this entry: O=C(Oc1cccnc1Cl)c1cc(B(O)O)cc([N+](=O)[O-])c1 [Compound (1s)]
Response: 4.37

Query: Fill in pKi for record Cc1ccccc1OC(=O)c1cc(B(O)O)cc([N+](=O)[O-])c1 [Compound (1k)]
Response: 3.89

Query: Output measured pKi for this item: O=C(OCc1ccccc1)c1cc(B(O)O)cc([N+](=O)[O-])c1 [Compound F1201]
Response: 4.57

Query: // fetch pKi given entry O=C(Oc1c(F)cccc1F)c1cc(B(O)O)cc([N+](=O)[O-])c1 [Compound (1p)]
Response: 4.70

Query: Answer with the recorded pKi for the compound listed here: O=C(Oc1ccccc1F)c1cc(B(O)O)cc([N+](=O)[O-])c1 [Compound (1o)]
Response: 4.31

Query: Give pKi for O=C(Oc1ccc([N+](=O)[O-])cc1)c1cc(B(O)O)cc([N+](=O)[O-])c1 [Compound (1a)]
Response: 4.10

Query: Return pKi for the following compound: O=C(Oc1c(Cl)cc(Cl)cc1[N+](=O)[O-])c1cc(B(O)O)cc([N+](=O)[O-])c1 [Compound (1w)]
Response: 4.89

Query: Assign pKi to the following record: Cc1cccc(OC(=O)c2cc(B(O)O)cc([N+](=O)[O-])c2)c1 [(1m)]
Response: 3.94

Query: Identify pKi associated with the compound O=C(OCc1cccc(Cl)c1)c1cc(B(O)O)cc([N+](=O)[O-])c1 [Compound (3c)]
Response: 4.60

Query: Indicate the recorded pKi value for this compound: COc1ccc(OC(=O)c2cc(B(O)O)cc([N+](=O)[O-])c2)cc1 [Compound (1d)]
Response: 4.38
